Quick note: these are MIC numbers for system: Escherichia coli NIHJ
measured-property: MIC (µg/mL)

{"compound": "CC1(C)SC2C(NC(=O)C(NC(=O)c3cnc4cccnc4c3O)c3cccc(F)c3)C(=O)N2C1C(=O)O (stereo not shown) [Example 47]", "MIC, µg/mL": 1.56}
{"compound": "CC1(C)SC2C(NC(=O)C(NC(=O)c3cnc4cc5c(cc4c3O)OCC5)c3cccc(N)c3)C(=O)N2C1C(=O)O (stereo not shown) [Example 49]", "MIC, µg/mL": 3.13}

I. Cc1cc(C(NC(=O)c2cnc3cccnc3c2O)C(=O)NC2C(=O)N3C2SC(C)(C)C3C(=O)O)ccc1O (stereo not shown) [Example 60]
II. COc1nc(OC)c2c(O)c(C(=O)NC(C(=O)NC3C(=O)N4C3SC(C)(C)C4C(=O)O)c3ccc(N)cc3)cnc2n1 (stereo not shown) [Example 32]
INPUT: Compare MIC: is it lower for I or for II ? Answer by quoting the chosen item's label.
OUTPUT: I
(I: 0.78 µg/mL, II: 3.13 µg/mL)

Where do these numbers come from? They come from patent US3992371A.
